Experiment: in vivo
Details: female, rat, iv, 3 mg/kg, AUC0-t (Mean)
property: AUC(0-t) (ng·h/mL)
API: value field is a number in ng·h/mL; no unit string.

-- ask Give the measured AUC(0-t) of CCN(CC)CC#CCOC(=O)C(O)(c1ccccc1)C1CCCCC1 (stereo not shown) [oxybutynin] .
-- reply 335

* * *

Assay: in vivo
Conditions: female, rat, iv, 100 mg/kg, CL, gabapentin in rat plasma after 100 mg/kg gabapentin i.v., alone (Gab) or with 3 mg/kg oxybutynin (Com), individual animals
property: clearance (mL/min/kg)
Kindly provide the numeric value in mL/min/kg only, without the unit symbol.

-- ask Which clearance value belongs to `NCC1(CC(=O)O)CCCCC1` ?
-- reply 5.12

* * *

Assay: in vivo
Details: female, rat, iv, 100 mg/kg, t1/2 (Mean), gabapentin in rat plasma after 100 mg/kg gabapentin i.v., alone (Gab) or with 3 mg/kg oxybutynin (Com), group Mean
property: half-life (h)
Report only the number, with the unit h understood.

-- ask Look up half-life: `NCC1(CC(=O)O)CCCCC1`
-- reply 2.13

* * *

Experiment: in vivo
Conditions: female, rat, iv, 3 mg/kg, Vz (Mean)
property: Vd (L/kg)
Numeric only. Scale: L/kg

-- ask Sample CCN(CC)CC#CCOC(=O)C(O)(c1ccccc1)C1CCCCC1 (stereo not shown) — what was its Vd?
-- reply 10.1

* * *

Experiment: in vivo
Conditions: female, rat, iv, 3 mg/kg, AUC0-∞ (Mean)
property: AUC(0-inf)
Quick note: number first, unit second.

-- ask Fill blank: measured AUC(0-inf) of the compound CCN(CC)CC#CCOC(=O)C(O)(c1ccccc1)C1CCCCC1 (stereo not shown) [oxybutynin] is ____.
-- reply 410 ng·h/mL

* * *

Assay: in vivo
Details: female, rat, iv, 100 mg/kg, AUC0-∞, gabapentin in rat plasma after 100 mg/kg gabapentin i.v., alone (Gab) or with 3 mg/kg oxybutynin (Com), individual animals
property: AUC(0-inf) (µg·h/mL)
Expressed in µg·h/mL, but write only the number.

-- ask Find the recorded AUC(0-inf) belonging to `NCC1(CC(=O)O)CCCCC1` and report it.
-- reply 325

* * *

Test: in vivo
Settings: female, rat, iv, 100 mg/kg, CL (Mean), gabapentin in rat plasma after 100 mg/kg gabapentin i.v., alone (Gab) or with 3 mg/kg oxybutynin (Com), group Mean
property: clearance

-- ask What measured clearance goes with `NCC1(CC(=O)O)CCCCC1` ?
-- reply 6.52 mL/min/kg

* * *

Assay: in vivo
Conditions: female, rat, iv, 100 mg/kg, Tmax, gabapentin in rat plasma after 100 mg/kg gabapentin i.v., alone (Gab) or with 3 mg/kg oxybutynin (Com), individual animals
property: Tmax
Write down the value, and be sure its unit follows.

-- ask Would you mind telling me what Tmax value was observed for NCC1(CC(=O)O)CCCCC1 [gabapentin, 1-(aminomethyl) cyclohexaneacetic acid] ?
-- reply 15 min

* * *

Assay: in vivo
Settings: female, rat, iv, 100 mg/kg, AUC0-∞ (Mean), gabapentin in rat plasma after 100 mg/kg gabapentin i.v., alone (Gab) or with 3 mg/kg oxybutynin (Com), group Mean
property: AUC(0-inf)
Don't forget the unit after the number, please.

-- ask Which AUC(0-inf) value is on record for NCC1(CC(=O)O)CCCCC1 [gabapentin, 1-(aminomethyl) cyclohexaneacetic acid] ?
-- reply 270 µg·h/mL

* * *

Assay: in vivo
Conditions: female, rat, iv, 3 mg/kg, t1/2 (Mean)
property: half-life (min)
Numeric only. Scale: min

-- ask Consider the compound shown here: CCN(CC)CC#CCOC(=O)C(O)(c1ccccc1)C1CCCCC1 (stereo not shown) What is its recorded half-life?
-- reply 54
